Attribution: paper PMC5540273

experimental_target: CLK2 (Homo sapiens)
Sequence (P49760 whole entry): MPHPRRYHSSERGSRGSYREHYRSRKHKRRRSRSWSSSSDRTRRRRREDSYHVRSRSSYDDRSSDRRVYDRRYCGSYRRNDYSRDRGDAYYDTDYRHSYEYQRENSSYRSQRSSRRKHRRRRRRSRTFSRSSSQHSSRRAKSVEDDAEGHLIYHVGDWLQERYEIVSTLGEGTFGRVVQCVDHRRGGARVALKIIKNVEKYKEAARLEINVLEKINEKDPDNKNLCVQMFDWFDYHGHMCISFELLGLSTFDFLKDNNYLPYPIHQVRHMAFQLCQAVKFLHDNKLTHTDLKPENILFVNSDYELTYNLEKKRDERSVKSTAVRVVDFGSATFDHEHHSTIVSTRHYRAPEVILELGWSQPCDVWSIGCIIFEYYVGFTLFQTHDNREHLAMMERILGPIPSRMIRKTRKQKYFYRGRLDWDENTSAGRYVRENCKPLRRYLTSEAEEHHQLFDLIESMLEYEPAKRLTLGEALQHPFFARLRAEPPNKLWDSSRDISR
assay_protocol: KINOMEscan competition binding
condition_context: read-out: %Inh CLK2
Answer Condition not met if inhibition at 1 µM is under 20%, and Condition met if it is 20% or more.

Data request: Does inhibition at 1 µM meet or surpass 20% for O=c1cc(N2CCOCC2)nc2n(Cc3cccc(Cl)c3Cl)c(C3CC3)nn12 [UNC10225469A] ?
Data returned: Condition met

Data request: Does inhibition at 1 µM meet or surpass 20% for Cn1cc(-c2cnc(N)c3c(-c4ccc5c(c4)CCN5C(=O)Cc4ccccc4)csc23)cn1 [UNC10225012A] ?
Data returned: Condition not met

Data request: Does inhibition at 1 µM meet or surpass 20% for Cc1ccc(NC(=O)Nc2cccc(C(F)(F)F)c2)cc1 [UNC10225187A] ?
Data returned: Condition met

Data request: Does inhibition at 1 µM meet or surpass 20% for CS(=O)(=O)Cc1ccc(Nc2nccc(-c3c(-c4cccc(NC(=O)C5CCCCC5)c4)nn4ncccc34)n2)cc1 [UNC10225159A] ?
Data returned: Condition not met

Data request: Does inhibition at 1 µM meet or surpass 20% for COc1cccc(OC)c1C(=O)Nc1cccc(-c2nn3ccccc3c2-c2ccnc(Nc3cccc(F)c3)n2)c1 [UNC10225310A] ?
Data returned: Condition met
